The next entries give measured AC50 for Histamine H1 receptor (Homo sapiens).

Known AC50 results, listed for orientation:
compound	result
O=C(Nc1nc(-c2cc(Cl)cs2)c(N2CCN(C3CCCCC3)CC2)s1)c1cnc(N2CCC(C(=O)O)CC2)c(Cl)c1 [AVATROMBOPAG]	> 10 µM
N=C(N)c1ccc2cc(OC(=O)c3ccc(N=C(N)N)cc3)ccc2c1 [NAFAMOSTAT]	> 30 µM
CC[N+]1(C)CCCC(OC(=O)C(O)(c2ccccc2)c2ccccc2)C1 (stereo not drawn) [PIPENZOLATE]	27 µM
Cc1cc(CC(=O)O)n(C)c1C(=O)c1ccc(Cl)cc1 [ZOMEPIRAC]	> 30 µM
CCC(=O)OCC(=O)[C@@]1(OC(=O)CC)[C@@H](C)C[C@H]2[C@@H]3CCC4=CC(=O)C=C[C@]4(C)[C@@]3(F)[C@@H](O)C[C@@]21C [BETAMETHASONE DIPROPIONATE]	> 30 µM

Find the measured AC50 of CC(C)=CCOc1ccc(/C=C/C(=O)c2ccc(OCC=C(C)C)cc2OCC(=O)O)cc1 [SOFALCONE] with Histamine H1 receptor (Homo sapiens) as test system. > 30 µM

Would you please give the reported AC50 of CC1(C)C(C=C(Cl)Cl)C1C(=O)OCc1cccc(Oc2ccccc2)c1 (stereo not drawn) [PERMETHRIN] with Histamine H1 receptor (Homo sapiens)? > 10 µM

Print Histamine H1 receptor (Homo sapiens) AC50 for CO/N=C(\C(=O)N[C@@H]1C(=O)N2C(C(=O)[O-])=C(C[n+]3cccc4c3CCC4)CS[C@H]12)c1csc(N)n1 [CEFPIROME] . > 30 µM

====

Endpoint: AC50. System: Vasopressin V1a receptor (Homo sapiens, UniProt P37288). Items follow. Note: assay procedure not described here.
Sequence (P37288 whole entry): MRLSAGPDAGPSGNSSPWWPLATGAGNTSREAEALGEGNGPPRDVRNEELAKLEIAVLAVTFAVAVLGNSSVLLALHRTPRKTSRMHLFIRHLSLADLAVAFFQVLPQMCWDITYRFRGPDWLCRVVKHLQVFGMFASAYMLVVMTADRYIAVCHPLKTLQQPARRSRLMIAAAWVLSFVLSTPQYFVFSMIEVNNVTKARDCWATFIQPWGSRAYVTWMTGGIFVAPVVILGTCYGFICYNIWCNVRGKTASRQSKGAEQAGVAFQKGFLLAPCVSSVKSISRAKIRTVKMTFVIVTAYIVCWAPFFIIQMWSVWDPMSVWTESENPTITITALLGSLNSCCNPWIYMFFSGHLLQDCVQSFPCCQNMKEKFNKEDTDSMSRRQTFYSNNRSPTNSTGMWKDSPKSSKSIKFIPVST

molecule	AC50
N#Cc1ccccc1-c1cc(-c2ccccn2)cn(-c2ccccc2)c1=O	> 30 µM

Please list AC50 recorded for the molecule `C[C@]1(COc2ccc(N3CCC(Oc4ccc(OC(F)(F)F)cc4)CC3)cc2)Cn2cc([N+](=O)[O-])nc2O1` > 10 µM

Input COc1cccc(N(C)C(=S)Oc2ccc3c(c2)CCCC3)n1 [LIRANAFTATE] , output reported AC50. > 30 µM

Find the measured AC50 of CCCN(CCC)CCc1cccc2c1CC(=O)N2 [ROPINIROLE] and report it. > 30 µM

Report AC50, nothing else, for this molecule: Nc1ccn([C@@H]2O[C@H](CO)[C@@H](O)C2(F)F)c(=O)n1 [GEMCITABINE] > 30 µM

Kindly indicate its recorded AC50. Item: Cc1ccc(=O)n(-c2ccccc2)c1 [PIRFENIDONE] > 30 µM

Given the molecule CCCN(CC)C(CC)C(=O)Nc1c(C)cccc1C (centres undefined) [ETIDOCAINE] , write its reported AC50. > 30 µM

Supply reported AC50 belonging to this molecule: CCN(CC)CCOC(=O)c1ccc(N)cc1Cl [CHLOROPROCAINE] > 30 µM

Report measured AC50; entry is `CC(=N)N1CC[C@H](SC2=C(C(=O)O)N3C(=O)[C@H]([C@@H](C)O)[C@H]3C2)C1` > 300 µM

====

study.system: Sodium-dependent noradrenaline transporter (Homo sapiens); note: assay procedure not described here
Sequence (P23975 whole entry): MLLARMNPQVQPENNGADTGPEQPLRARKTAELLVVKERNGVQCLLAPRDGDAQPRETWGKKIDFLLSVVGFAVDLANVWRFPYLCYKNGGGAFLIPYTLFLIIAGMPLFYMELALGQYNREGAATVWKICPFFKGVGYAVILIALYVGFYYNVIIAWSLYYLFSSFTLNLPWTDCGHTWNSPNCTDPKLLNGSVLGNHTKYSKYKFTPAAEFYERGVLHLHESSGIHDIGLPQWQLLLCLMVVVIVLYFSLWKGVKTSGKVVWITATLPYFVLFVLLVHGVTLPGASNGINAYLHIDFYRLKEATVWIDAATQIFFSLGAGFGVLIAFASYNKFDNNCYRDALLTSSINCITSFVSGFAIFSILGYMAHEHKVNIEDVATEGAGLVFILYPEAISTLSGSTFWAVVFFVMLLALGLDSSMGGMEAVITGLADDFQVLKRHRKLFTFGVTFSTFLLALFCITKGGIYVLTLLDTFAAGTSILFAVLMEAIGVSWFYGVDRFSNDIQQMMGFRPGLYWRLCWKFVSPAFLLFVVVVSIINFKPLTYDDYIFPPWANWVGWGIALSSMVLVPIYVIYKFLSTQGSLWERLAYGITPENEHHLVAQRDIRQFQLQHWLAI
experimental.endpoint: AC50

> print(dat)
                                   compound   result
1  COCCOC(=O)C1=C(C)NC(C)=C(C(=O)OC/C=C/c2ccccc2)C1c1cccc([N+](=O)[O-])c1 (stereo not drawn)  > 30 µM
2      CCCN(CCc1cccs1)[C@H]1CCc2c(O)cccc2C1   5.1 µM

Enter AC50 (test system Sodium-dependent noradrenaline transporter (Homo sapiens)) for CC(=O)OCC(=O)[C@@]1(O)CC[C@H]2[C@@H]3CCC4=CC(=O)CC[C@]4(C)C3=CC[C@@]21C [ANECORTAVE ACETATE] > 10 µM
